# Tested On: human cannabinoid CB1 receptor (Homo sapiens)
# Method: biochemical
# Type: binding
# Condition Notes: read-out: hCB1 Ki; [3H]-CP55940 radioligand, membranes of transfected HEK293 EBNA cells, mean ± SEM of at least three experiments
Recorded Metric: Ki (µM)

INSERT INTO results (compound, quantitative_result) VALUES
  ('CCCCCc1cc(O)c2c(c1)OC(C)(C)c1cn[nH]c1-2 [Compound 7]', 4.1);

====

Known pKi of a selection of molecules
# Tested On: human cannabinoid CB1 receptor (Homo sapiens, UniProt P21554)
# Sequence (P21554 whole entry): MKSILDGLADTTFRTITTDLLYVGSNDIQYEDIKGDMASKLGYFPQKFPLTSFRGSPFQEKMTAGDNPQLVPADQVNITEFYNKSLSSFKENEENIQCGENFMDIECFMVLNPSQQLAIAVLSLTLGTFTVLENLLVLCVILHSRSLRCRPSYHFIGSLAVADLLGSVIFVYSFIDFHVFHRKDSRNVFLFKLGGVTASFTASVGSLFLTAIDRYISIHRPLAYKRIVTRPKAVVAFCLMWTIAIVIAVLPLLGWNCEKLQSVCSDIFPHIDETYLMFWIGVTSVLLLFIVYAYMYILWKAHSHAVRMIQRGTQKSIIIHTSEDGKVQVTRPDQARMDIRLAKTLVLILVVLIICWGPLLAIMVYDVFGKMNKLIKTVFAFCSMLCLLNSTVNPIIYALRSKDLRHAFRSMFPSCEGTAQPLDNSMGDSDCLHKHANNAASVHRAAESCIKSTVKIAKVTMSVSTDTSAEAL
# Method: biochemical
# Assay type: binding
pKi: −log10 of the molar value.
Recorded Metric: pKi

INSERT INTO measurements (molecule, relation_qualifier, quantitative_result) VALUES
  ('CCCCCc1cc(O)c2c(c1)OC(C)(C)c1cnn(C)c1-2', '=', 5.33),
  ('CCCCCc1cc(O)c2c(c1)OC(C)(C)c1cn(C)nc1-2', '=', 4.66),
  ('CCCCCc1cc(O)c2c(c1)OC(C)(C)c1cn(CC)nc1-2', '<', 4.40),
  ('CCCCCc1cc(O)c2c(c1)OC(C)(C)c1cnn(CC)c1-2', '=', 5.02),
  ('CCCCCc1cc(O)c2c(c1)OC(C)(C)c1cnn(-c3ccc(Cl)c(Cl)c3)c1-2 [Compound 10a]', '=', 6.22);

Hey, just so you know, these numbers are from paper PMC4049093.
